The measured values listed here are drawn from patent US11034674B2.

test: Phase 1 single- and multiple-dose study: plasma pharmacokinetics; assay type: in vivo; settings: human, po, 100 mg, single oral dose 100 mg, Panel B, Period 4 (B4), fasted
measuredParameter: Tmax

stdin: What value of Tmax has been recorded for this entry: O=C(OC(C(F)(F)F)C(F)(F)F)N1CCN(Cc2ccc(C(F)(F)F)cc2N2CCCC2)CC1
stdout: 1.83 h

###

test: Phase 1 single- and multiple-dose study: plasma pharmacokinetics; type: in vivo; conditions: human, po, 100 mg, single oral dose 100 mg, Panel B, Period 4 (B4), fasted
measuredParameter: Cmax
Please provide the amount together with its unit, number first.

stdin: What value of Cmax has been recorded for this entry: O=C(OC(C(F)(F)F)C(F)(F)F)N1CCN(Cc2ccc(C(F)(F)F)cc2N2CCCC2)CC1
stdout: 76 ng/mL

###

biological target: MGLL (Canis lupus familiaris); assay: biochemical; conditions: MGLL IC50, Dog Prefrontal Cortex; 30 min pre-incubation at 37° C.; mean ± SEM, n = 3
Sequence (A0A8I3PC77 1-304): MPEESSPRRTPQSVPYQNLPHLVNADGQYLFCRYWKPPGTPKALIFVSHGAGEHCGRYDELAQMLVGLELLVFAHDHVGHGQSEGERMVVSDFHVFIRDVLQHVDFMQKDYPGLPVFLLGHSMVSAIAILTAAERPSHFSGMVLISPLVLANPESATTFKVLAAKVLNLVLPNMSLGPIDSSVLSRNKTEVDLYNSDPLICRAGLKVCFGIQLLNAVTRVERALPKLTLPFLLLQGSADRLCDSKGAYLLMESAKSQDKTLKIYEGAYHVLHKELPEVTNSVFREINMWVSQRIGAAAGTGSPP
measuredParameter: IC50 (nM)
// return numeric value only (unit: nM, not printed)

stdin: What value of IC50 has been recorded for this entry: O=C(OC(C(F)(F)F)C(F)(F)F)N1CCN(Cc2ccc(C(F)(F)F)cc2N2CCCC2)CC1
stdout: 12

###

Assay: Phase 1 single- and multiple-dose study: plasma pharmacokinetics
Type: in vivo
Conditions: human, po, 6 mg, single oral dose 6 mg, fasted, read-out: AUCinf (mean)
Method: General Design and Methodology: The purpose of this study is to assess the initial safety, tolerability, pharmacokinetics, and pharmacodynamics of Compound 1 (administered as Capsules of the hydrochloride salt of Compound 1) in healthy adults. […] PK: Descriptive statistics are provided by treatment (Part 1) and by treatment and day (Part 2). […] Time to steady-state, and evaluation of PK linearity are evaluated in an exploratory fashion.
measuredParameter: AUC(0-inf) (ng·h/mL)
// return numeric value only (unit: ng·h/mL, not printed)

stdin: What value of AUC(0-inf) has been recorded for this entry: O=C(OC(C(F)(F)F)C(F)(F)F)N1CCN(Cc2ccc(C(F)(F)F)cc2N2CCCC2)CC1
stdout: 47

###

assay: Phase 1 single- and multiple-dose study: plasma pharmacokinetics; assay type: in vivo; conditions: human, po, 100 mg, single oral dose 100 mg, Panel A, Period 3 (A3), fasted
measuredParameter: Tmax (h)
// return numeric value only (unit: h, not printed)

stdin: What value of Tmax has been recorded for this entry: O=C(OC(C(F)(F)F)C(F)(F)F)N1CCN(Cc2ccc(C(F)(F)F)cc2N2CCCC2)CC1
stdout: 3.17

###

assay: Phase 1 single- and multiple-dose study: plasma pharmacokinetics; type: in vivo; conditions: human, po, 50 mg, single oral dose 50 mg, fasted
measuredParameter: Cmax (ng/mL)
// return numeric value only (unit: ng/mL, not printed)

stdin: What value of Cmax has been recorded for this entry: O=C(OC(C(F)(F)F)C(F)(F)F)N1CCN(Cc2ccc(C(F)(F)F)cc2N2CCCC2)CC1
stdout: 59.8

###

assay: Phase 1 single- and multiple-dose study: plasma pharmacokinetics; format: in vivo; details: human, po, 100 mg, single oral dose 100 mg, Panel A, Period 3 (A3), fasted, read-out: AUCinf (mean)
measuredParameter: AUC(0-inf) (ng·h/mL)
// return numeric value only (unit: ng·h/mL, not printed)

stdin: What value of AUC(0-inf) has been recorded for this entry: O=C(OC(C(F)(F)F)C(F)(F)F)N1CCN(Cc2ccc(C(F)(F)F)cc2N2CCCC2)CC1 [Compound 1]
stdout: 289

###

experiment: Phase 1 single- and multiple-dose study: plasma pharmacokinetics; type: in vivo; conditions: human, po, 100 mg, single oral dose 100 mg, Panel B, Period 4 (B4), fasted, read-out: T1/2 (median) (converted)
measuredParameter: half-life (min)
// return numeric value only (unit: min, not printed)

stdin: What value of half-life has been recorded for this entry: O=C(OC(C(F)(F)F)C(F)(F)F)N1CCN(Cc2ccc(C(F)(F)F)cc2N2CCCC2)CC1
stdout: 226

###

test: Phase 1 single- and multiple-dose study: plasma pharmacokinetics; type: in vivo; details: human, po, 200 mg, single oral dose 200 mg, fasted
measuredParameter: Cmax (µg/mL)
// return numeric value only (unit: µg/mL, not printed)

stdin: What value of Cmax has been recorded for this entry: O=C(OC(C(F)(F)F)C(F)(F)F)N1CCN(Cc2ccc(C(F)(F)F)cc2N2CCCC2)CC1 [Compound 1]
stdout: 0.109

###

assay: Phase 1 single- and multiple-dose study: plasma pharmacokinetics; format: in vivo; conditions: human, po, 2 mg, single oral dose 2 mg, fasted, read-out: AUCinf (mean)
measuredParameter: AUC(0-inf) (ng·h/mL)
// return numeric value only (unit: ng·h/mL, not printed)

stdin: What value of AUC(0-inf) has been recorded for this entry: O=C(OC(C(F)(F)F)C(F)(F)F)N1CCN(Cc2ccc(C(F)(F)F)cc2N2CCCC2)CC1
stdout: 15.9

###

experiment: Phase 1 single- and multiple-dose study: plasma pharmacokinetics; assay type: in vivo; conditions: human, po, 100 mg, single oral dose 100 mg, Panel A, Period 3 (A3), fasted, read-out: T1/2 (median) (converted)
measuredParameter: half-life (h)
// return numeric value only (unit: h, not printed)

stdin: What value of half-life has been recorded for this entry: O=C(OC(C(F)(F)F)C(F)(F)F)N1CCN(Cc2ccc(C(F)(F)F)cc2N2CCCC2)CC1 [Compound 1]
stdout: 5.82

###

assay: in vivo; conditions: rat, blood, po, 0.5 mg/kg
measuredParameter: concentration at 4 h (nM)
// return numeric value only (unit: nM, not printed)

stdin: What value of concentration at 4 h has been recorded for this entry: O=C(OC(C(F)(F)F)C(F)(F)F)N1CCN(Cc2ccc(C(F)(F)F)cc2N2CCCC2)CC1
stdout: 7
